Below, each of the molecules is paired with its reported normalised viability value.
tested on: Hs578T; assay: normalised viability (% of control), CellTiter-Blue; higher = more viable cells (about 100 = DMSO control); conditions: 10 nM; incubation time: 72 h
measuredProperty: normalised viability (%)

{"columns": ["smilesStructure", "measuredProperty", "unitAbbreviation", "recordedResult"],
 "data": [
  ["O=P(O)(O)C(O)(Cn1ccnc1)P(=O)(O)O", "normalised viability", "%", 95.1],
  ["O=NN(CCCl)C(=O)NCCCl", "normalised viability", "%", 114],
  ["CC(C)(C)c1cnc(CSc2cnc(NC(=O)C3CCNCC3)s2)o1", "normalised viability", "%", 104],
  ["CC1=C2C[C@H]3[C@@H](CC=C4C[C@@H](O)CC[C@@]43C)[C@@H]2CC[C@]12O[C@@H]1C[C@H](C)CN[C@H]1[C@H]2C", "normalised viability", "%", 127],
  ["Nc1nc2[nH]cnc2c(=S)[nH]1", "normalised viability", "%", 137]
]}

----------
normalised response: recorded values
tested on: CAL-85-1; assay: normalised response (% of control), CellTiter-Glo; higher = more viable cells (100 = DMSO, 0 = benzethonium chloride kill control); settings: incubation time: 72 h
measuredProperty: normalised response (%)

{"columns": ["molecule", "unitAbbreviation", "recordedResult"],
 "data": [
  ["CC(=O)c1c(C)c2cnc(Nc3ccc(N4CCNCC4)cn3)nc2n(C2CCCC2)c1=O [Palbociclib] (1 nM)", "%", 97.8],
  ["CC[C@@H]1C(=O)OC[C@@H]1Cc1cncn1C [Pilocarpine] (40 nM)", "%", 103],
  ["Cn1cnc2c(F)c(Nc3ccc(Br)cc3Cl)c(C(=O)NOCCO)cc21 [Selumetinib] (1 nM)", "%", 104],
  ["CC1(C)CCC(CN2CCN(c3ccc(C(=O)NS(=O)(=O)c4ccc(NCC5CCOCC5)c([N+](=O)[O-])c4)c(Oc4cnc5[nH]ccc5c4)c3)CC2)=C(c2ccc(Cl)cc2)C1 [ABT-199] (10 nM)", "%", 106],
  ["CC(C)(C)c1cnc(CSc2cnc(NC(=O)C3CCNCC3)s2)o1 [SNS-032] (10 nM)", "%", 109],
  ["Cc1ccc([N+](=O)[O-])cc1S(=O)(=O)N(C)/N=C/c1cnc2ccc(Br)cn12 [PIK-75] (1 nM)", "%", 92.2],
  ["CC[C@@H]1C(=O)OC[C@@H]1Cc1cncn1C [Pilocarpine] (4000 nM)", "%", 102],
  ["CC[C@@H]1C(=O)OC[C@@H]1Cc1cncn1C [Pilocarpine] (4 nM)", "%", 95],
  ["COc1cc2c(cc1O)CC[C@@H]1[C@@H]2CC[C@]2(C)[C@@H](O)CC[C@@H]12 [2-methoxyestradiol] (1 nM)", "%", 102]
]}

----------
system: CAL-85-1; test: normalised viability (% of control), CellTiter-Blue; higher = more viable cells (100 = DMSO, 0 = benzethonium chloride kill control); conditions: incubation time: 72 h
Below, each entry is listed with its recorded normalised viability.
measuredProperty: normalised viability (%)

{"columns": ["compound", "recordedResult"],
 "data": [
  ["CC(C)(C)c1cnc(CSc2cnc(NC(=O)C3CCNCC3)s2)o1 [SNS-032] (1 nM)", 92.7],
  ["CC1(C)CNc2cc(NC(=O)c3cccnc3NCc3ccncc3)ccc21 [Motesanib] (1 nM)", 75.9],
  ["Cn1cnc2c(F)c(Nc3ccc(Br)cc3Cl)c(C(=O)NOCCO)cc21 [Selumetinib] (1 nM)", 90.1],
  ["C[C@]1(O)C[C@@H](c2nc(-c3ccc4ccc(-c5ccccc5)nc4c3)c3c(N)nccn32)C1 [OSI-906] (1 nM)", 100],
  ["O=NN(CCCl)C(=O)NCCCl [Carmustine] (1 nM)", 87.8],
  ["CC[C@@H]1C(=O)OC[C@@H]1Cc1cncn1C [Pilocarpine] (4 nM)", 96.3]
]}

----------
system: DU-4475; experiment: drug sensitivity score (DSS), CellTox Green (DSS (AUC-based score)); higher = stronger drug effect (viability inhibition or cytotoxicity); extreme values may be limits of the assay; details: incubation time: 72 h

{"columns": ["smilesStructure", "drug sensitivity score"],
 "data": [
  ["COc1cc2c(cc1O)CC[C@@H]1[C@@H]2CC[C@]2(C)[C@@H](O)CC[C@@H]12", 0],
  ["Nc1ncn([C@@H]2O[C@H](CO)[C@@H](O)[C@H]2O)c(=O)n1", 0],
  ["CC1(C)CCC(CN2CCN(c3ccc(C(=O)NS(=O)(=O)c4ccc(NCC5CCOCC5)c([N+](=O)[O-])c4)c(Oc4cnc5[nH]ccc5c4)c3)CC2)=C(c2ccc(Cl)cc2)C1", 0]
]}

----------
test system: SK-BR-3; test: normalised response (% of control), CellTiter-Glo; higher = more viable cells (100 = DMSO, 0 = benzethonium chloride kill control); settings: incubation time: 72 h
Classify as follows. Reported normalised response greater than or equal to 90%: MET. Reported normalised response below: NOT MET.

{"columns": ["compound", "classLabel"],
 "data": [
  ["CC(C)(C)c1cnc(CSc2cnc(NC(=O)C3CCNCC3)s2)o1 [SNS-032] (1000 nM)", "NOT MET"],
  ["CC1(C)CCC(CN2CCN(c3ccc(C(=O)NS(=O)(=O)c4ccc(NCC5CCOCC5)c([N+](=O)[O-])c4)c(Oc4cnc5[nH]ccc5c4)c3)CC2)=C(c2ccc(Cl)cc2)C1 [ABT-199] (1 nM)", "MET"],
  ["CC1=C2C[C@H]3[C@@H](CC=C4C[C@@H](O)CC[C@@]43C)[C@@H]2CC[C@]12O[C@@H]1C[C@H](C)CN[C@H]1[C@H]2C [Cyclopamine] (1000 nM)", "MET"],
  ["COc1cc(F)c(F)c(Nc2ccc(I)cc2F)c1NS(=O)(=O)C1(C[C@H](O)CO)CC1 [Refametinib] (1000 nM)", "NOT MET"],
  ["CC1=C2C[C@H]3[C@@H](CC=C4C[C@@H](O)CC[C@@]43C)[C@@H]2CC[C@]12O[C@@H]1C[C@H](C)CN[C@H]1[C@H]2C [Cyclopamine] (1 nM)", "MET"],
  ["CC1(C)CNc2cc(NC(=O)c3cccnc3NCc3ccncc3)ccc21 [Motesanib] (1000 nM)", "NOT MET"],
  ["CC(=O)O[C@@]12CO[C@@H]1C[C@H](O)[C@@]1(C)C(=O)[C@H](O)C3=C(C)[C@@H](OC(=O)[C@H](O)[C@@H](NC(=O)OC(C)(C)C)c4ccccc4)C[C@@](O)([C@@H](OC(=O)c4ccccc4)[C@H]21)C3(C)C [Docetaxel] (0.1 nM)", "MET"],
  ["O=NN(CCCl)C(=O)NCCCl [Carmustine] (1000 nM)", "MET"],
  ["C[C@]12CC[C@@H]3c4ccc(OC(=O)N(CCCl)CCCl)cc4CC[C@H]3[C@@H]1CC[C@@H]2O [Estramustine] (10 nM)", "MET"],
  ["CC(=O)O[C@@]12CO[C@@H]1C[C@H](O)[C@@]1(C)C(=O)[C@H](O)C3=C(C)[C@@H](OC(=O)[C@H](O)[C@@H](NC(=O)OC(C)(C)C)c4ccccc4)C[C@@](O)([C@@H](OC(=O)c4ccccc4)[C@H]21)C3(C)C [Docetaxel] (100 nM)", "NOT MET"],
  ["CC(=O)N(O)CCCCCNC(=O)CCC(=O)N(O)CCCCCNC(=O)CCC(=O)N(O)CCCCCN [Deferoxamine] (10 nM)", "MET"]
]}

----------
system: SK-BR-3; assay: normalised viability (% of control), CellTiter-Blue; higher = more viable cells (100 = DMSO, 0 = benzethonium chloride kill control); conditions: incubation time: 72 h
measuredProperty: normalised viability (%)

{"columns": ["compound", "targetDesc", "recordedResult"],
 "data": [
  ["CC1=C2C[C@H]3[C@@H](CC=C4C[C@@H](O)CC[C@@]43C)[C@@H]2CC[C@]12O[C@@H]1C[C@H](C)CN[C@H]1[C@H]2C [Cyclopamine] (1 nM)", "SK-BR-3", 97.3],
  ["O=NN(CCCl)C(=O)NCCCl [Carmustine] (1 nM)", "SK-BR-3", 99.8],
  ["CC(C)(C)c1cnc(CSc2cnc(NC(=O)C3CCNCC3)s2)o1 [SNS-032] (1 nM)", "SK-BR-3", 101],
  ["Cn1cnc2c(F)c(Nc3ccc(Br)cc3Cl)c(C(=O)NOCCO)cc21 [Selumetinib] (1 nM)", "SK-BR-3", 94],
  ["COc1cc(F)c(F)c(Nc2ccc(I)cc2F)c1NS(=O)(=O)C1(C[C@H](O)CO)CC1 [RDEA119] (1 nM)", "SK-BR-3", 106],
  ["C[C@]1(O)C[C@@H](c2nc(-c3ccc4ccc(-c5ccccc5)nc4c3)c3c(N)nccn32)C1 [OSI-906] (1 nM)", "SK-BR-3", 91.1]
]}
